# Tested on: Escherichia coli TOP10
# experiment_summary: shrunken log2 fold change of peptide-encoding DNA abundance (4.5 h post-induction vs induction); higher = less antimicrobial activity (less host growth inhibition)
# measurement_conditions: time post-induction: 4.5 h; library: site-saturation at positions 5, 18, 19, 20
measured_property: shrunken log2 fold change
Answer as a number with no unit attached.

INSERT INTO measurements (chain_sequence, value_reported) VALUES
  ('RRIRCRPPRLPRPRPRPDRPPRP', 0.19),
  ('RRIRSRPPRLPRPRPRPKFYPRP', -0.371),
  ('RRIRYRPPRLPRPRPRPVMRPRP', 0.0461),
  ('RRIRHRPPRLPRPRPRPSYPPRP', -0.868),
  ('RRIRFRPPRLPRPRPRPKIRPRP', -0.226);

Here is another sequence to look at.
The sequence identified as RRIRVRPPRLPRPRPRPAVLPRP registered its shrunken log2 fold change at 1.75

* * *

# Tested on: Escherichia coli TOP10
# experiment_summary: shrunken log2 fold change of peptide-encoding DNA abundance (4.5 h post-induction vs induction); higher = less antimicrobial activity (less host growth inhibition)
# measurement_conditions: time post-induction: 4.5 h; library: site-saturation at positions 5, 18, 19, 20
Label true (1) when shrunken log2 fold change is at or above -0.2; otherwise label false (0).

Take a look at these entries with their results.
INSERT INTO assay_data (chain_sequence, cat) VALUES
  ('RRIRARPPRLPRPRPRPVATPRP', 'true (1)'),
  ('RRIRDRPPRLPRPRPRPMPWPRP', 'true (1)'),
  ('RRIRWRPPRLPRPRPRPTLTPRP', 'true (1)'),
  ('RRIRHRPPRLPRPRPRPIDIPRP', 'false (0)'),
  ('RRIRWRPPRLPRPRPRPMAAPRP', 'true (1)');

# bool: shrunken log2 fold change of RRIRTRPPRLPRPRPRPWSPPRP >= -0.2
false (0)

# bool: shrunken log2 fold change of RRIRYRPPRLPRPRPRPVYAPRP >= -0.2
false (0)

# bool: shrunken log2 fold change of RRIRKRPPRLPRPRPRPYGHPRP >= -0.2
true (1)

# bool: shrunken log2 fold change of RRIRTRPPRLPRPRPRPNESPRP >= -0.2
false (0)

# bool: shrunken log2 fold change of RRIRLRPPRLPRPRPRPKQNPRP >= -0.2
true (1)

* * *

# Test system: Escherichia coli TOP10
# experiment_summary: shrunken log2 fold change of peptide-encoding DNA abundance (4.5 h post-induction vs induction); higher = less antimicrobial activity (less host growth inhibition)
# measurement_conditions: time post-induction: 4.5 h; library: site-saturation at positions 5, 18, 19, 20
We begin with a simple list: items and their reported shrunken log2 fold change.
Answer as a number with no unit attached.

INSERT INTO assay_data (chain_sequence, value_reported) VALUES
  ('RRIRKRPPRLPRPRPRPKYQPRP', 0.0989),
  ('RRIRTRPPRLPRPRPRPENDPRP', -0.0847),
  ('RRIRQRPPRLPRPRPRPEQTPRP', 0.0148),
  ('RRIRGRPPRLPRPRPRPSLVPRP', 0.473);

The sequence identified as RRIRTRPPRLPRPRPRPMCGPRP registered its shrunken log2 fold change at -0.171

The sequence identified as RRIRQRPPRLPRPRPRPKFSPRP registered its shrunken log2 fold change at -0.914

The sequence identified as RRIRERPPRLPRPRPRPSSGPRP registered its shrunken log2 fold change at -0.648

* * *

# System: Escherichia coli TOP10
# experiment_summary: shrunken log2 fold change of peptide-encoding DNA abundance (4.5 h post-induction vs induction); higher = less antimicrobial activity (less host growth inhibition)
# measurement_conditions: time post-induction: 4.5 h; library: site-saturation at positions 5, 18, 19, 20
measured_property: shrunken log2 fold change
Answer as a number with no unit attached.

Some sequences with known shrunken log2 fold change results, for comparison:
INSERT INTO assay_data (chain_sequence, value_reported) VALUES
  ('RRIRNRPPRLPRPRPRPFFLPRP', -0.255),
  ('RRIRIRPPRLPRPRPRPVHFPRP', -0.355);

The sequence identified as RRIRWRPPRLPRPRPRPWSLPRP registered its shrunken log2 fold change at 0.0526

The sequence identified as RRIRLRPPRLPRPRPRPPHSPRP registered its shrunken log2 fold change at 0.0872

The sequence identified as RRIRDRPPRLPRPRPRPLAEPRP registered its shrunken log2 fold change at 1.17

The sequence identified as RRIRDRPPRLPRPRPRPNRPPRP registered its shrunken log2 fold change at 0.0951

The sequence identified as RRIRSRPPRLPRPRPRPNINPRP registered its shrunken log2 fold change at -0.612

The sequence identified as RRIRYRPPRLPRPRPRPTMMPRP registered its shrunken log2 fold change at -1.19

The sequence identified as RRIRCRPPRLPRPRPRPSETPRP registered its shrunken log2 fold change at 0.108

* * *

We begin with a simple list: items and their reported shrunken log2 fold change.
# Tested on: Escherichia coli TOP10
# experiment_summary: shrunken log2 fold change of peptide-encoding DNA abundance (4.5 h post-induction vs induction); higher = less antimicrobial activity (less host growth inhibition)
# measurement_conditions: time post-induction: 4.5 h; library: site-saturation at positions 5, 18, 19, 20
Answer as a number with no unit attached.

Reported shrunken log2 fold change (Escherichia coli TOP10) for entry RRIRARPPRLPRPRPRPINQPRP is -0.195

Reported shrunken log2 fold change (Escherichia coli TOP10) for entry RRIRRRPPRLPRPRPRPNPSPRP is 0.215

Reported shrunken log2 fold change (Escherichia coli TOP10) for entry RRIRSRPPRLPRPRPRPKCEPRP is -0.125

Reported shrunken log2 fold change (Escherichia coli TOP10) for entry RRIRGRPPRLPRPRPRPVADPRP is 1.34

Reported shrunken log2 fold change (Escherichia coli TOP10) for entry RRIRCRPPRLPRPRPRPNCMPRP is -0.369

Reported shrunken log2 fold change (Escherichia coli TOP10) for entry RRIRGRPPRLPRPRPRPHVPPRP is 0.103

Reported shrunken log2 fold change (Escherichia coli TOP10) for entry RRIRWRPPRLPRPRPRPNWPPRP is 0.214

Reported shrunken log2 fold change (Escherichia coli TOP10) for entry RRIRWRPPRLPRPRPRPHMDPRP is -0.18

Reported shrunken log2 fold change (Escherichia coli TOP10) for entry RRIRPRPPRLPRPRPRPKHWPRP is 0.273

* * *

We begin with a simple list: items and their reported shrunken log2 fold change.
# Test system: Escherichia coli TOP10
# experiment_summary: shrunken log2 fold change of peptide-encoding DNA abundance (4.5 h post-induction vs induction); higher = less antimicrobial activity (less host growth inhibition)
# measurement_conditions: time post-induction: 4.5 h; library: site-saturation at positions 5, 18, 19, 20

Some sequences with known shrunken log2 fold change results, for comparison:
INSERT INTO assay_data (chain_sequence, value_reported) VALUES
  ('RRIRLRPPRLPRPRPRPNHDPRP', -0.333),
  ('RRIRIRPPRLPRPRPRPIMPPRP', -0.825),
  ('RRIRHRPPRLPRPRPRPCKCPRP', -0.174);

The sequence identified as RRIRPRPPRLPRPRPRPSQPPRP registered its shrunken log2 fold change at 0.122

The sequence identified as RRIRSRPPRLPRPRPRPCDYPRP registered its shrunken log2 fold change at -0.238

The sequence identified as RRIRHRPPRLPRPRPRPQATPRP registered its shrunken log2 fold change at 0.00115

* * *

# Tested on: Escherichia coli TOP10
# experiment_summary: shrunken log2 fold change of peptide-encoding DNA abundance (4.5 h post-induction vs induction); higher = less antimicrobial activity (less host growth inhibition)
# measurement_conditions: time post-induction: 4.5 h; library: site-saturation at positions 5, 18, 19, 20
Label YES when shrunken log2 fold change is at or above -0.2; otherwise label NO.

Take a look at these entries with their results.
INSERT INTO results (chain_sequence, cat) VALUES
  ('RRIRVRPPRLPRPRPRPIPHPRP', 'NO'),
  ('RRIRKRPPRLPRPRPRPKKQPRP', 'YES'),
  ('RRIRDRPPRLPRPRPRPWNPPRP', 'NO'),
  ('RRIRNRPPRLPRPRPRPIKPPRP', 'YES'),
  ('RRIRTRPPRLPRPRPRPYGFPRP', 'NO');

Now turn to the next sequence.
# bool: shrunken log2 fold change of RRIRDRPPRLPRPRPRPMWCPRP >= -0.2
YES

* * *

# Test system: Escherichia coli TOP10;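 also: peptides expressed intracellularly from a pBAD plasmid library in pooled LB shake-flask culture, induced with 0.3% L-arabinose, DNA abundance read by NGS, three biological replicates, DESeq2 with apeglm shrinkage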
# experiment_summary: shrunken log2 fold change of peptide-encoding DNA abundance (4.5 h post-induction vs induction); higher = less antimicrobial activity (less host growth inhibition)
# measurement_conditions: time post-induction: 4.5 h; library: site-saturation at positions 5, 18, 19, 20
Label Satisfied when shrunken log2 fold change is at or above 0.007; otherwise label Not satisfied.

Take a look at these entries with their results.
INSERT INTO assay_data (chain_sequence, cat) VALUES
  ('RRIRCRPPRLPRPRPRPYFWPRP', 'Not satisfied'),
  ('RRIRHRPPRLPRPRPRPVNWPRP', 'Satisfied'),
  ('RRIRERPPRLPRPRPRPLWNPRP', 'Not satisfied'),
  ('RRIRRRPPRLPRPRPRPWVEPRP', 'Satisfied');

# bool: shrunken log2 fold change of RRIRPRPPRLPRPRPRPAVYPRP >= 0.007
Not satisfied
